// provenance: PubChem BioAssay (NCATS)

Molecular target: Cytochrome P450 2C9 (Homo sapiens)
Assay: Cytochrome P450 family 2 subfamily C member 9 (CYP2C9) small molecule antagonists: luciferase biochemical (cell-free) qHTS assay (AID 1645842); further: nearly all actives have a fitted effect of over 55% in size
Details: P450-Glo CYP2C9 enzyme assay, luciferin luminescence; series mostly up to 57.4 µM
Inconclusive results are not listed. Activity calls are given as the source filed them. The call rests on the fitted dose curve; in most records, active means well fitted inhibition curve with a large enough effect in the repeat runs; inconclusive means weak or mixed curves; inactive means no such curve, though single readings can be large or run the other way.
Reply using exactly one outcome from 1.0 = active, 0.0 = inactive

Examples with answers:
>>> assigned_category("Cc1coc2c1C(=O)C(=O)c1c-2ccc2c(C)cccc12")
1.0
>>> assigned_category("CCc1nc(-c2cccc(C)c2)c(-c2ccnc(NC(=O)c3ccccc3)c2)s1")
1.0
>>> assigned_category("Cn1cc(CNCC2CCN(c3ncc(C(=O)NO)cn3)CC2)c2ccccc21")
0.0
>>> assigned_category("c1cncc(CN2CCC(n3ncc4c(N5CCOCC5)nc(-c5ccc6[nH]ccc6c5)nc43)CC2)c1")
1.0

Next molecule, please.
What outcome does the record of this test show for CCCCOc1ccc(C(=O)Nc2ccc(F)cc2F)cc1 ?
1.0

====

Assay: Quantitative High-Throughput drug screen in 47 multiple myeloma cell lines against the NCATS MIPE library collection: SKMM1_PLB cell viability assay (AID 1919863); further: potency means the concentration at half of the fitted maximal effect; nearly all actives have a fitted effect of over 35% in size
Settings: SKMM1 myeloma viability, CellTiter-Glo ATP, 48 h
Records with an inconclusive call do not appear. Calls of active or inactive are those of the source. Calls come from the whole dose curve; as a rule, active = well fitted cell-killing curve with a large enough effect; inconclusive = small, poorly fitted or top-dose-only effect, or effect the other way; inactive = no such curve, though single readings can be large or run the other way.
VALUE TYPE: Potency

The examples below pair each entry with its known result.
>>> result("C[C@H](NCc1ccc2c(c1)nc(NC(=O)c1ccc(-c3cn[nH]c3)s1)n2CCc1ccccc1)C(C)(C)C")
"2960 nM (active)"
>>> result("Cn1cnc(=N)c2[nH]cnc21")
"209 nM (active)"
>>> result("C=CCNC1=C2C[C@@H](C)C[C@H](OC)[C@@H](O)[C@@H](C)C=C(C)[C@H](OC(N)=O)[C@@H](OC)C=CC=C(C)C(=O)NC(=CC1=O)C2=O")
"833 nM (active)"

Give Potency for the following compound: COc1ccc(S(=O)(=O)Nc2cccnc2Nc2ccc(O)cc2)cc1
37.2 nM (active)

Give Potency for the following compound: COc1cc(OC)cc(-c2ccc3ncc4ccc(=O)n(-c5ccc(N6CCNCC6)c(C(F)(F)F)c5)c4c3c2)c1
13200 nM (active)

Give Potency for the following compound: C[C@H]1[C@@H](OC(=O)CCC(=O)O)O[C@@H]2O[C@@]3(C)CC[C@@H]4[C@H](C)CC[C@@H]1[C@@]24OO3
4690 nM (active)

Give Potency for the following compound: CNC(=O)c1cccc(-c2ccc3c(N4CCOC[C@H]4C)nc(N4CCOC[C@H]4C)nc3n2)c1
66.2 nM (active)

Give Potency for the following compound: CC(=O)NCC(=O)N1[C@H]2CC[C@H]1c1cc(Nc3ncc(C(F)(F)F)c(NC4CCC4)n3)ccc12
20900 nM (active)

====

Assay: Quantitative High-Throughput drug screen in 47 multiple myeloma cell lines against the NCATS MIPE library collection: KMS26_JCRB cell viability assay (AID 1918975); further: nearly all actives have a fitted effect of over 45% in size
Conditions: KMS26 myeloma cells viability, CellTiter-Glo ATP, 48 h; series mostly up to 45.8 µM
Records with an inconclusive call do not appear. Calls of active or inactive are those of the source. Calls follow the shape of the dose curve; as a rule, active = well fitted cell-killing curve with a large enough effect; inconclusive = small, poorly fitted or top-dose-only effect, or effect the other way; inactive = no such curve, though single readings can be large or run the other way.
Reply using exactly one outcome from yes (1) (active), no (0) (inactive)

>>> assigned_category("C=C(C)[C@@H]1CC[C@]2(C)CC[C@]3(C)[C@H](CC[C@@H]4[C@@]5(C)CC[C@H](O)C(C)(C)[C@H]5CC[C@]43C)[C@@H]12")
"no (0)"
>>> assigned_category("C[C@@H](Oc1ccc2[nH]nc(C=Cc3cnn(CCO)c3)c2c1)c1c(Cl)cncc1Cl")
"yes (1)"
>>> assigned_category("c1cc(N[C@@H]2CCNC2)nc(-c2cnc3ccc(-c4cn[nH]c4)cn23)c1")
"yes (1)"
>>> assigned_category("OC[C@H]1OC(O)C[C@@H](O)[C@H]1O (stereo partly specified)")
"no (0)"

What outcome does the record of this test show for Cc1coc2c1C(=O)C(=O)c1c-2ccc2c(C)cccc12 ?
yes (1)

What outcome does the record of this test show for O=C(O)CCCCC(CCSCc1ccccc1)SCc1ccccc1 (stereo unspecified) ?
no (0)

====

Assay: qHTS of pediatric cancer cell lines to identify multiple opportunities for drug repurposing: Confirmatory screen for U-2 OS cells (AID 1347122); further: nearly all actives have a fitted effect of over 65% in size
Conditions: U-2 OS osteosarcoma cell viability; series mostly up to 45.9 µM
Procedure: Drug repurposing or repositioning has been offered as a strategy for drug development in oncology programs. […] [1] Shen, M et al. Quantitative high-throughput phenotypic screening of pediatric cancer cell lines identifies multiple opportunities for drug repurposing. […] Cells were assayed in growth media at a density of 500-1,000 cells/well. […] After a 15 min incubation at room temperature, samples were analyzed for luminescence intensity using a ViewLux High-throughput CCD imager equipped with clear filters.
Results filed as inconclusive are left out. Active and inactive are the calls of the source. Calls follow the shape of the dose curve; as a rule, active = well fitted cell-killing curve with a large enough effect; inconclusive = small, poorly fitted or top-dose-only effect; inactive = no such curve, though single readings can be large or run the other way.
Reply using exactly one outcome from active, inactive

What outcome does the record of this test show for COc1ccc(C(C)=O)c(O)c1 ?
inactive

What outcome does the record of this test show for NC(=O)Nc1cc(-c2ccc(CN3CCOCC3)cc2)sc1C(N)=O ?
active

What outcome does the record of this test show for Oc1cc(-c2nc(-c3ccccc3)[nH]c2-c2ccncc2)ccc1Cl ?
active

What outcome does the record of this test show for C[C@H]1[C@@H](OC(=O)CCC(=O)O)O[C@@H]2O[C@@]3(C)CC[C@@H]4[C@H](C)CC[C@@H]1[C@@]24OO3 ?
active

====

Test: qHTS to identify inhibitors of the type 1 interferon - major histocompatibility complex class I in skeletal muscle: primary screen against the NCATS Mechanism Interrogation Plate v5.0 (MIPE) Libary (AID 1347411);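 further: plate controls were vehicle for no effect and reference inhibitor for full effect; nearly all actives have a fitted effect of over 65% in size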
Details: iHSKM cells + IFN-b, HiBiT-tagged MHC-I luminescence, 24 h; series mostly up to 45.8 µM
Results filed as inconclusive are left out. Active and inactive are the calls of the source. Calls come from the whole dose curve; as a rule, active = well fitted inhibition curve with a large enough effect; inconclusive = small, poorly fitted or top-dose-only effect; inactive = no such curve, though single readings can be large or run the other way.
VALUE TYPE: outcome

>>> result("CC(=O)NC(CS)C(=O)O (stereo not drawn)")
"inactive"
>>> result("NC(=O)c1cccc(-c2cccc(OC(=O)NC3CCCCC3)c2)c1")
"inactive"
>>> result("COc1cc2c(cc1OC)[C@@H]1C(=O)c3ccc4c(c3O[C@@H]1CO2)C=CC(C)(C)O4")
"inactive"

====

System: HEK293
Assay: Cytotoxic Profiling of Annotated Libraries Using Quantitative High-Throughput Screening (AID 1296008); further: nearly all actives have a fitted effect of over 60% in size
Conditions: Five cell lines viability, CellTiter-Glo ATP luminescence, 48-72 h
Inconclusive results are not listed. The source made the active and inactive calls. Calls come from the whole dose curve; as a rule, active = well fitted inhibition curve with a large enough effect; inconclusive = small, poorly fitted or top-dose-only effect; inactive = flat fitted curve, though single readings scatter.
Reply using exactly one outcome from 1.0 (active), 0.0 (inactive)

>>> assigned_category("Nc1nc(=O)n([C@H]2CSC(CO)O2)cc1F (some centres undefined)")
0.0
>>> assigned_category("COc1ccc(C[C@@H](C)[C@@H](C)Cc2ccc(OC)c(OC)c2)cc1OC")
1.0
>>> assigned_category("CC(=O)[C@]1(O)Cc2c(O)c3c(c(O)c2[C@@H](O[C@H]2C[C@H](N)[C@@H](O)[C@H](C)O2)C1)C(=O)c1ccccc1C3=O")
1.0

What outcome does the record of this test show for Nc1ncn([C@@H]2O[C@H](CO)[C@@H](O)[C@@H]2O)c(=O)n1 ?
1.0

What outcome does the record of this test show for COC(=O)C=CC(=O)OC ?
0.0

What outcome does the record of this test show for O=C(CN1C(=O)C2(CCCC2)NC[C@H]1c1cc(F)cc(F)c1)Nc1ccc2c(c1)C[C@@]1(C2)C(=O)Nc2ncccc21 ?
0.0

What outcome does the record of this test show for CC(C)C[C@H](NC(=O)CNC(=O)c1cc(Cl)ccc1Cl)B1OC(=O)CC(CC(=O)O)(C(=O)O)O1 (some centres undefined) ?
1.0

What outcome does the record of this test show for CN1CCCN(C(=O)c2cccc(-c3ccc(C=C4C(=O)Nc5ccc(Cl)cc54)o3)c2)CC1 ?
1.0

What outcome does the record of this test show for CC[C@@]1([C@@H]2O[C@@H]([C@H]3O[C@@](O)(CO)[C@H](C)C[C@H]3C)C[C@H]2C)CC[C@H]([C@]2(C)CC[C@]3(C[C@H](O)[C@@H](C)[C@@H]([C@@H](C)[C@@H](OC)[C@H](C)C(=O)O)O3)O2)O1 ?
1.0

What outcome does the record of this test show for CC(=O)NCC(=O)N1[C@H]2CC[C@H]1c1cc(Nc3ncc(C(F)(F)F)c(NC4CCC4)n3)ccc12 ?
1.0

What outcome does the record of this test show for O=C(C=Cc1ccc(CN(CCO)CCc2c[nH]c3ccccc23)cc1)NO ?
1.0

What outcome does the record of this test show for COC(=O)[C@@H]1[C@H]2C[C@@H]3c4[nH]c5ccccc5c4CCN3C[C@@H]2CC[C@@H]1O ?
0.0

What outcome does the record of this test show for COC[C@H](NC(=O)c1cnc(C)s1)C(=O)N[C@@H](COC)C(=O)N[C@@H](Cc1ccccc1)C(=O)[C@@]1(C)CO1 ?
1.0

====

Test: Quantitative High-Throughput drug screen in 47 multiple myeloma cell lines against the NCATS MIPE library collection: KMS28PE_JCRB cell viability assay (AID 1918983); further: nearly all actives have a fitted effect of over 35% in size
Settings: KMS28PE multiple myeloma viability, CellTiter-Glo ATP, 48 h; series mostly up to 45.8 µM
Inconclusive results are not listed. The source made the active and inactive calls. The call rests on the fitted dose curve; in most records, active means well fitted cell-killing curve with a large enough effect; inconclusive means small, poorly fitted or top-dose-only effect, or effect the other way; inactive means no such curve, though single readings can be large or run the other way.
Reply using exactly one outcome from active, inactive

Examples with answers:
>>> assigned_category("CCc1nc(-c2cccc(C)c2)c(-c2ccnc(NC(=O)c3ccccc3)c2)s1")
"active"
>>> assigned_category("O=C(C=CC#Cc1cccc(NS(=O)(=O)c2ccccc2)c1)NO")
"active"
>>> assigned_category("CNC(=O)c1ccc(Nc2cc(Nc3ccccc3S(=O)(=O)C(C)C)c3cc[nH]c3n2)nc1")
"active"
>>> assigned_category("Oc1ccc([C@@H]2Oc3ccc(O)cc3[C@@H]3CCC[C@@H]32)cc1")
"active"
>>> assigned_category("C=C1C[C@@]2(O)O[C@@]3(C[C@H]2C(C)C)[C@H](C)CC[C@H]13")
"inactive"
>>> assigned_category("COc1cccc2c1C(=O)c1c(O)c3c(c(O)c1C2=O)C[C@@](O)(C(=O)CO)C[C@H]3O[C@H]1C[C@H](N)[C@H](O)[C@H](C)O1")
"active"

Next compound, please.
What outcome does the record of this test show for CCC[C@H]1C[C@H](C(=O)N[C@@H]([C@@H]2O[C@@H](SC)[C@@H](O)[C@@H](O)[C@@H]2O)[C@H](C)Cl)N(C)C1 ?
inactive
